Experimental System: T1, 4H2705-AA
T1 chain: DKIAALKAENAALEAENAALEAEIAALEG
Assay Protocol: two-hybrid library CCmax;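 further: natural log of median RNA to DNA barcode read ratio; higher means stronger binding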
Condition Parameters: mean of both orientations
Recorded Endpoint: interaction score

[[record]]
binder = "DENAALEAEIAALEAKIAALKAKIAALKG [4H1070-AA]"
endpoint_result = -1.19

[[record]]
binder = "DEIAALEAENAALKAKIAALKAEIAALEG [4H233-AA]"
endpoint_result = 1

[[record]]
binder = "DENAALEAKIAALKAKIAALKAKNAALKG [4H1392-AA]"
endpoint_result = -1.59


A. DKIAALEAENAALEAEIAALKAENAALEG [4H2187-AA]
B. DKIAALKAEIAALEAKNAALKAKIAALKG [4H2622-AA]
C. DENAALKAENAALEAKIAALKAKIAALKG [4H1710-AA]
D. DENAALKAKNAALKAEIAALEAEIAALEG [4H1985-AA]
E. DEIAALEAEIAALKAKNAALKAEIAALEG [4H121-AA]
Prompt: Rank entries according to their interaction score, from the largest number down. # output: labels, in the requested order
Response: B, E, C, D, A
(B: 0.956, E: 0.603, C: -0.626, D: -1.05, A: -1.68)
